- Tested on: HCI16 (cells of a triple-negative basal-like breast cancer xenograft)
- MEASUREMENT NOTES: cell viability (% of vehicle); higher = less cytotoxic;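 note: PDX cells carrying CMV promoter-driven luciferase, viability read as total photon flux per second by IVIS imaging following D-luciferin, vehicle control 0.1% DMSO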
- MEASUREMENT SETUP: 10 µM; 72 h
The reader will find reported cell viability values listed item by item below.
// response body must contain only the number

Answered cases to consult:
MOLECULE: CCCc1nn(C)c2c(=O)nc(-c3cc(S(=O)(=O)N4CCN(C)CC4)ccc3OCC)[nH]c12
NUMERIC READOUT: 103
--
MOLECULE: CC(CN(C)C)CN1c2ccccc2CCc2ccccc21.O=C(O)/C=C\C(=O)O (stereo not drawn) [Trimipramine (maleate)]
NUMERIC READOUT: 105

Lookup: Please respond with reported cell viability (system HCI16) for CS(=O)(=O)c1ccc(C(=O)Nc2ccc(Cl)c(-c3ccccn3)c2)c(Cl)c1 .
Found: 83.4

Lookup: Please respond with reported cell viability (system HCI16) for CCCS(=O)(=O)Nc1ccc(F)c(C(=O)c2c[nH]c3ncc(-c4ccc(Cl)cc4)cc23)c1F .
Found: 102

Lookup: Please respond with reported cell viability (system HCI16) for Cc1cnc(NC(=O)C2=C(O)c3ccccc3S(=O)(=O)N2C)s1 .
Found: 88.8

Lookup: Please respond with reported cell viability (system HCI16) for CC(C[N+](C)(C)C)OC(N)=O.[Cl-] (stereo not drawn) [Bethanechol chloride] .
Found: 101

Lookup: Please respond with reported cell viability (system HCI16) for CC(=O)Nc1ccc(O)cc1 .
Found: 126

Lookup: Please respond with reported cell viability (system HCI16) for Cc1cnc(Nc2ccc(OCCN3CCCC3)cc2)nc1Nc1cccc(S(=O)(=O)NC(C)(C)C)c1 .
Found: 161

====

- System: HCI13 (cells of an ER-positive luminal breast cancer xenograft)
- MEASUREMENT NOTES: cell viability (% of vehicle); higher = less cytotoxic
- MEASUREMENT SETUP: 10 µM; 72 h
Field 'label' (enum: Yes / No). Set to Yes when cell viability is strictly under 100; else No.

Solved entries (count: 8):
MOLECULE: CC1=C(C(=O)O)N2C(=O)C(NC(=O)C(N)c3ccccc3)C2SC1 (stereo not drawn) [Cephalexin]
SYSTEM NAME: HCI13
GROUP LABEL: Yes

MOLECULE: NC(=O)N1c2ccccc2CC(=O)c2ccccc21 [Oxcarbazepine]
SYSTEM NAME: HCI13
GROUP LABEL: No

MOLECULE: CO[C@H]1O[C@@H]2OC3(C)CC[C@H]4[C@H](C)CC[C@@H]([C@H]1C)[C@@]24OO3 [Artemether]
SYSTEM NAME: HCI13
GROUP LABEL: Yes

MOLECULE: Oc1ccc(OCc2ccccc2)cc1 [Monobenzone]
SYSTEM NAME: HCI13
GROUP LABEL: No

MOLECULE: Cc1ccccc1N1C(=O)c2cc(S(N)(=O)=O)c(Cl)cc2NC1C (stereo not drawn) [Metolazone]
SYSTEM NAME: HCI13
GROUP LABEL: No

MOLECULE: COC1=C(OC)C(=O)C(CCCCCCCCCCO)=C(C)C1=O [Idebenone]
SYSTEM NAME: HCI13
GROUP LABEL: Yes

MOLECULE: Cl.Nc1ccn(C2OC(CO)C(O)C2O)c(=O)n1 (stereo not drawn) [Cytarabine hydrochloride]
SYSTEM NAME: HCI13
GROUP LABEL: Yes

MOLECULE: CCN1CCCC1CNC(=O)c1cc(S(=O)(=O)CC)c(N)cc1OC (stereo not drawn) [Amisulpride]
SYSTEM NAME: HCI13
GROUP LABEL: Yes

Lookup: I wonder whether CON=C(C(=O)NC1C(=O)N2C(C(=O)O)=C(CSC(=O)c3ccco3)CSC12)c1csc(N)n1.Cl (stereo not drawn) [Ceftiofur HCl] has cell viability below 100. Can you tell?
Found: Yes

Lookup: I wonder whether CN1CCCC[C@H]1CCN1c2ccccc2Sc2ccc(S(C)=O)cc21.O=S(=O)(O)c1ccccc1 (stereo partly drawn) [Mesoridazine Besylate] has cell viability below 100. Can you tell?
Found: No

Reference source: the supplement of paper PMC6992640
